System: Plasmodium falciparum
measurement_description: Relative IC50 against Plasmodium falciparum K1 and 3D7
Format: functional
I'd appreciate it if you could supply Ratio IC50 values for the items below.
Respond with the number and no other words.

What the record says about CC(C)(C)NC(=O)CNc1ccnc2cc(Cl)ccc12 : Ratio IC50 is 1.4

What the record says about CC(C)CNCCNc1ccnc2cc(Cl)ccc12 : Ratio IC50 is 3.1

What the record says about NCCNc1ccnc2cc(Cl)ccc12 : Ratio IC50 is 400

What the record says about CC1=C(CCCCCC(=O)N(CCNc2ccnc3cc(Cl)ccc23)C(C)C)C(=O)c2ccccc2C1=O : Ratio IC50 is 1.1

What the record says about CC(C)NCCNc1ccnc2cc(Cl)ccc12 : Ratio IC50 is 9.5

What the record says about Clc1ccc2c(NCCNCC3CC3)ccnc2c1 : Ratio IC50 is 53.7

What the record says about CC(C)(C)CNCCNc1ccnc2cc(Cl)ccc12 : Ratio IC50 is 0.3

What the record says about Clc1ccc2c(N3CC3)ccnc2c1 : Ratio IC50 is 2.4

What the record says about CC1=C(CCCCCC(=O)NCCNc2ccnc3cc(Cl)ccc23)C(=O)c2ccccc2C1=O : Ratio IC50 is 2

What the record says about CCN(CC)Cc1cc(Nc2ccnc3cc(Cl)ccc23)ccc1O.Cl : Ratio IC50 is 0.6

What the record says about CCN(CC)Cc1cc(Nc2ccnc3cc(Cl)ccc23)ccc1OCc1c(C(F)(F)F)c(OC)c2ccccc2c1OC : Ratio IC50 is 1

What the record says about COc1c(COc2ccc(NC(C)=O)cc2)c(C(F)(F)F)c(OC)c2ccccc12 : Ratio IC50 is 2.4

What the record says about CC(C)NCCCNc1ccnc2cc(Cl)ccc12 : Ratio IC50 is 40

What the record says about CC1=C(Cc2ccc(CC(=O)N(CCNc3ccnc4cc(Cl)ccc34)C(C)C)cc2)C(=O)c2ccccc2C1=O : Ratio IC50 is 0.4

###

Test system: KB
measurement_description: Cytotoxicity against human KB cells by alamar blue assay
Format: functional, cell-based
conditions: read-out: TD50 (the source's name)
measured_attribute: CC50 (µM)
Write it as a number; the unit µM goes unstated.

What the record says about CC(C)CNCCNc1ccnc2cc(Cl)ccc12 : CC50 is 22.5

What the record says about CCN(CC)CCCC(C)Nc1ccnc2cc(Cl)ccc12 (stereo not given) : CC50 is 127

What the record says about COc1c(C)c(Cc2ccc(CC(=O)NCCNc3ccnc4cc(Cl)ccc34)cc2)c(OC)c2ccccc12 : CC50 is 11.5

What the record says about COc1c(C)c(CCCCCC(=O)N(CCNc2ccnc3cc(Cl)ccc23)C(C)C)c(OC)c2ccccc12 : CC50 is 6.9

What the record says about COc1c(C)c(CN(CCNc2ccnc3cc(Cl)ccc23)CC(C)(C)C)c(OC)c2ccccc12 : CC50 is 10.6
